Test system: Mus musculus
Experiment: Antiinflammatory activity against carrageenan-induced paw edema in mouse assessed as decrease in index of hind paw edema at 20 mg/kg, po administered 1 hr prior to carrageenan challenge
Assay type: functional, organism-based
Design: dose 20 mg/kg
The source made the active and inactive calls. The rule behind the calls is not given here.
Possible outcomes: 1 (active), 0 (inactive)

{"STRUCTURE_AS_SMILES": "COc1ccc2c(c1)c(CC(=O)O)c(C)n2C(=O)c1ccc(Cl)cc1", "LABEL": 1}
{"STRUCTURE_AS_SMILES": "C=C(C)[C@@H]1CC[C@]2(C(=O)Nc3ccc(I)cc3)CC[C@]3(C)[C@H](CC[C@@H]4[C@@]5(C)CCC(=O)C(C)(C)[C@@H]5CC[C@]43C)[C@@H]12", "LABEL": 0}
{"STRUCTURE_AS_SMILES": "C=C(C)[C@@H]1CC[C@]2(C(=O)Nc3ccc(C#CCN4CCOCC4)cc3)CC[C@]3(C)[C@H](CC[C@@H]4[C@@]5(C)CCC(=O)C(C)(C)[C@@H]5CC[C@]43C)[C@@H]12", "LABEL": 1}
{"STRUCTURE_AS_SMILES": "C=C(C)[C@@H]1CC[C@]2(C(=O)Nc3ccc(C#CCN4CCCCC4)cc3)CC[C@]3(C)[C@H](CC[C@@H]4[C@@]5(C)CCC(=O)C(C)(C)[C@@H]5CC[C@]43C)[C@@H]12", "LABEL": 1}

Each recorded value in this set is attributed to ChEMBL document CHEMBL1155251.
